Assay Target: purified recombinant human alpha synuclein fibrils (human, UniProt P37840 1-140)
Measurement Protocol: SPR, Biacore T200, as in Example 3; Fab injected;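 further: ligands amine-coupled on CM5 chip flow cells, HBS-EP+ running buffer, kinetic data fitted with 1:1 model allowing local bulk contribution and global Rmax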
Measured kon, listed per entry.
Write the number in M⁻¹ s⁻¹ without appending the unit.

Reported kon, binder 6470 rabbit Fab with heavy chain mutation N99Q (Fab, V domains shown) VH: QSVEESGGRLVTPGTPLTLTCTVSGIDLSSHDMYWVRQAPGKGLEYIGAIYASGSTYYASWAKGRFTISKTSTTVDLKMTSLTTEDTATYFCARIHYGQSGGLWGQGTLVTVSS VL: AIVMTQTPSSKSVAVGDTVTINCQASQSVYKNNYLAWFQQKPGQPPKQLIYGASTLASGVPSRFKGSGSGTQFTLTISDVVCDDAATYYCAGYKGGRNDGFAFGGGTEVVVKR : ____
1.03e+07

Same lookup for 6470 rabbit Fab with heavy chain mutation N99K (Fab, V domains shown) VH: QSVEESGGRLVTPGTPLTLTCTVSGIDLSSHDMYWVRQAPGKGLEYIGAIYASGSTYYASWAKGRFTISKTSTTVDLKMTSLTTEDTATYFCARIHYGKSGGLWGQGTLVTVSS VL: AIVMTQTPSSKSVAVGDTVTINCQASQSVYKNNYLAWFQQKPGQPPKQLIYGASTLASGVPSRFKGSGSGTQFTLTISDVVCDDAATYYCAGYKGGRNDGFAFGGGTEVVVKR , please.
1.58e+07

# next binder below
Reported kon, binder 6470 rabbit Fab with light chain mutation Y30W (Fab, V domains shown) VH: QSVEESGGRLVTPGTPLTLTCTVSGIDLSSHDMYWVRQAPGKGLEYIGAIYASGSTYYASWAKGRFTISKTSTTVDLKMTSLTTEDTATYFCARIHYGNSGGLWGQGTLVTVSS VL: AIVMTQTPSSKSVAVGDTVTINCQASQSVWKNNYLAWFQQKPGQPPKQLIYGASTLASGVPSRFKGSGSGTQFTLTISDVVCDDAATYYCAGYKGGRNDGFAFGGGTEVVVKR : ____
4.75e+06
